# Tested on: P-gp (human MDR1)
# Assay Explanation: MDCK-MDR1 bi-directional transport assay
# Assay Conditions: dog, MDCK-MDR1, Papp, B-A Value, 5 μM, single values
Parameter: Papp B→A at 1 h, 5 μM (×10⁻⁶ cm/s)
Numbers only, in ×10⁻⁶ cm/s.

Using the record for C[C@H]1O[C@@H](O[C@H]2[C@@H](O)C[C@H](O[C@H]3[C@@H](O)C[C@H](O[C@H]4CC[C@@]5(C)[C@H](CC[C@@H]6[C@@H]5C[C@@H](O)[C@]5(C)[C@@H](C7=CC(=O)OC7)CC[C@]65O)C4)O[C@@H]3C)O[C@@H]2C)C[C@H](O)[C@@H]1O , state its measured Papp B→A at 1 h, 5 μM.
14.6

====

Provide the reported Papp A→B at 1 h, 5 μM of each item.
# Tested on: P-gp (human MDR1)
# Assay Explanation: in vitro
# Assay Conditions: dog, MDCK-MDR1, Papp, A-B Mean
Put your answer as a value accompanied by its unit after it.

# Structure Smiles, Parameter, Assay Result
measured = [
    ("Cn1c(C(=O)NOCCO)c(Nc2ccc(I)cc2F)c2cnccc21", "Papp A→B at 1 h, 5 μM", "12.8 ×10⁻⁶ cm/s"),
]

Shift focus to the following entry.
Tell us which Papp A→B at 1 h, 5 μM value is on record for Cn1c(Nc2ccc(I)cc2F)c(C(=O)NOCCO)c2cccnc21
49.1 ×10⁻⁶ cm/s

====

Answer each item with its documented microsomal CLint at 1 μM.
# Assay Explanation: S9 stability assay, human liver S9 fraction
# Assay type: in vitro ADME
# Assay Conditions: pH 7.4; Table 1; human liver S9 fraction; read-out: CLint
One number for each entry, in µL/min/mg.

Examples with answers:
# Compound, Unit Abbreviation, microsomal CLint at 1 μM
measured = [
    ("O=C(NOC[C@H](O)CO)c1ccc(F)c(F)c1Nc1ccc(I)cc1F [Example C2]", "µL/min/mg", 1.02),
    ("Cn1cnc2c(F)c(Nc3ccc(Br)cc3Cl)c(C(=O)NOCCO)cc21 [Example C4]", "µL/min/mg", 2.5),
    ("O=C(NOC[C@H](O)CO)c1c(Nc2ccc(I)cc2F)sc2ncccc12 [Example C9]", "µL/min/mg", 2.2),
    ("O=C(NC[C@@H](O)CO)c1ccncc1Nc1ccc(I)cc1F [Example C7]", "µL/min/mg", 1.29),
    ("Cn1c(Nc2ccc(I)cc2F)c(C(=O)NOCCO)c2cccnc21 [Example 2]", "µL/min/mg", 21.4),
]

Please find the next compound below.
Give microsomal CLint at 1 μM for Cn1cnc2c(F)c(Nc3ccc(Br)cc3F)c(C(=O)NOCCO)cc21 [Example C3]
1.25

====

# Assay Explanation: S9 stability assay, human liver S9 fraction
# Assay type: in vitro ADME
# Assay Conditions: pH 7.4; Table 1; human liver S9 fraction; read-out: CLint
Parameter: microsomal CLint at 1 μM
Respond with the figure and its unit, in that order.

# example entries with known answers
# Structure Smiles, microsomal CLint at 1 μM
data = [
    ("Cn1c(Nc2ccc(I)cc2F)c(C(=O)NOCC2CC2)c2cccnc21", "44.8 µL/min/mg"),
    ("Cn1c(C(=O)NOCCO)c(Nc2ccc(I)cc2F)c2cnccc21", "5.27 µL/min/mg"),
    ("O=C(NOCCO)c1ccc2cncn2c1Nc1ccc(I)cc1F", "6.98 µL/min/mg"),
    ("CC(=O)Nc1cccc(-n2c(=O)n(C3CC3)c(=O)c3c(Nc4ccc(I)cc4F)n(C)c(=O)c(C)c32)c1", "0.86 µL/min/mg"),
]

Assign microsomal CLint at 1 μM to the following record: O=C(NOCC1CC1)c1ccc(F)c(F)c1Nc1ccc(I)cc1Cl
10.4 µL/min/mg

====

# Assay Explanation: Plasma LCMS compound levels, in vivo mouse model
# Set-up: species or system mice
# Assay Conditions: male, C57BL/6J, mouse, plasma; topical 0.1%; 1 h after final application
Parameter: concentration at 1 h (ng/mL)
Numbers only, in ng/mL.

Please report concentration at 1 h for the following compound: Cn1c(Nc2ccc(I)cc2F)c(C(=O)NOCCO)c2cccnc21
174

====

# System: P-gp (human MDR1)
# Assay Explanation: in vitro
# Assay Conditions: dog, MDCK-MDR1, Papp, B-A Mean
Please respond with reported Papp B→A at 1 h, 5 μM for every item in the list.
Answers are plain numbers, in ×10⁻⁶ cm/s.

# Structure Smiles, Unit Abbreviation, Papp B→A at 1 h, 5 μM
records = [
    ("Cn1c(Nc2ccc(I)cc2F)c(C(=O)NOCCO)c2cccnc21", "×10⁻⁶ cm/s", 41.8),
]

Quote Papp B→A at 1 h, 5 μM reported for Cn1c(C(=O)NOCCO)c(Nc2ccc(I)cc2F)c2cnccc21 please.
43.5

====

# Assay Explanation: Plasma LCMS compound levels, in vivo mouse model
# Design: species or system mice
# Assay Conditions: male, C57BL/6J, mouse, plasma; topical 1%; 1 h after final application
Parameter: concentration at 1 h (ng/mL)
Give bare numbers, in ng/mL.

Determine from records and report concentration at 1 h for Cn1c(Nc2ccc(I)cc2F)c(C(=O)NOCCO)c2cccnc21
1020

====

# Assay Explanation: S9 stability assay, human liver S9 fraction
# Assay type: in vitro ADME
# Assay Conditions: known MEK compounds
Parameter: CLint (μL/min/mg protein)
One number for each entry, in μL/min/mg protein.

Consider the following illustrative entries.
# Compound, Unit Abbreviation, CLint
rows = [
    ("O=C(NC[C@@H](O)CO)c1ccncc1Nc1ccc(I)cc1F [Example C7]", "μL/min/mg protein", 1.29),
    ("O=C(NOC[C@H](O)CO)c1c(Nc2ccc(I)cc2F)sc2ncccc12 [Example C9]", "μL/min/mg protein", 2.20),
    ("O=C(NOC[C@H](O)CO)c1ccc(F)c(F)c1Nc1ccc(I)cc1F [Example C2]", "μL/min/mg protein", 1.02),
]

Quick one: give me CLint for each item below, same order please.
1. Cn1c(C(=O)NOCCO)c(Nc2ccc(I)cc2F)c2cnccc21 [Example C8]
2. Cn1cnc2c(F)c(Nc3ccc(Br)cc3F)c(C(=O)NOCCO)cc21 [Example C3]
3. O=C(NOCC1CC1)c1ccc(F)c(F)c1Nc1ccc(I)cc1Cl [Example C1]
4. CC(=O)Nc1cccc(-n2c(=O)n(C3CC3)c(=O)c3c(Nc4ccc(I)cc4F)n(C)c(=O)c(C)c32)c1 [Example C6]
5. O=C(NOCCO)c1ccc2cncn2c1Nc1ccc(I)cc1F [Example C5]
6. Cn1cnc2c(F)c(Nc3ccc(Br)cc3Cl)c(C(=O)NOCCO)cc21 [Example C4]

1. 5.27
2. 1.25
3. 10.37
4. 0.86
5. 6.98
6. 2.50

====

# Assay Explanation: Plasma LCMS compound levels, in vivo mouse model
# Set-up: species or system mice
# Assay Conditions: male, C57BL/6J, mouse, plasma; topical 0.5%; 1 h after final application
Parameter: concentration at 1 h (ng/mL)
Give bare numbers, in ng/mL.

Please give the documented concentration at 1 h of Cn1c(Nc2ccc(I)cc2F)c(C(=O)NOCCO)c2cccnc21
1040

====

# Assay Explanation: Plasma LCMS compound levels, in vivo mouse model
# Design: species or system mice
# Assay Conditions: male, C57BL/6J, mouse, plasma; topical 0.1%; 2 h after final application
Parameter: concentration at 2 h (ng/mL)
Answers are plain numbers, in ng/mL.

Answer with reported concentration at 2 h of Cn1c(Nc2ccc(I)cc2F)c(C(=O)NOCCO)c2cccnc21 [Example 2]
37.9

====

# Tested on: P-gp (human MDR1)
# Assay Explanation: MDCK-MDR1 bi-directional transport assay
# Assay Conditions: dog, MDCK-MDR1, Papp, A-B Value, 5 μM, single values
Parameter: Papp A→B at 1 h, 5 μM (×10⁻⁶ cm/s)
Give bare numbers, in ×10⁻⁶ cm/s.

Given the compound C[C@H]1O[C@@H](O[C@H]2[C@@H](O)C[C@H](O[C@H]3[C@@H](O)C[C@H](O[C@H]4CC[C@@]5(C)[C@H](CC[C@@H]6[C@@H]5C[C@@H](O)[C@]5(C)[C@@H](C7=CC(=O)OC7)CC[C@]65O)C4)O[C@@H]3C)O[C@@H]2C)C[C@H](O)[C@@H]1O [Digoxin] , write its reported Papp A→B at 1 h, 5 μM.
1.3

====

# Assay Explanation: Compound levels in neck/back skin (LCMS), in vivo mouse model
# Set-up: species or system mice
# Assay Conditions: male, C57BL/6J, mouse, neck/back skin; topical 1%; 2 h after final application
Parameter: concentration at 2 h (µg/mL)
Answers are plain numbers, in µg/mL.

Return the recorded concentration at 2 h value; entry: Cn1c(Nc2ccc(I)cc2F)c(C(=O)NOCCO)c2cccnc21 [Example 2]
378

====

# Assay Explanation: Compound levels in neck/back skin (LCMS), in vivo mouse model
# Design: species or system mice
# Assay Conditions: male, C57BL/6J, mouse, neck/back skin; topical 0.5%; 1 h after final application
Parameter: concentration at 1 h (µg/mL)
Give bare numbers, in µg/mL.

Supply recorded concentration at 1 h for Cn1c(Nc2ccc(I)cc2F)c(C(=O)NOCCO)c2cccnc21 [Example 2] here.
289
